The measurements presented in this section are drawn from ChEMBL document CHEMBL2169744.

ASSAY INFO: Inhibition of mTORC1-mediated 4EBP1-phosphorylation in human U87 cells
Format: cell-based, U-87MG ATCC
EXPERIMENTAL PARAMETERS: Homo sapiens, U-87 MG; read-out: IC50
For each of the compounds below, state its IC50.
Answers are plain numbers, in µM.

Please look at the items below and tell me IC50 for each one, in order.
1. Cc1nc(N)cc(-c2c(Nc3cc[nH]n3)nc3cccnn23)n1
2. Cc1nc(N)nc(-c2c(Nc3cc[nH]n3)nc3ccc(-c4ccccc4F)cn23)n1
3. Cc1nc(Nc2cccnc2)cc(-c2c(Nc3ccn[nH]3)nc3cccnn23)n1
4. Cc1nc(N)nc(-c2c(Nc3cc[nH]n3)nc3ccc(-c4cccnc4C)cn23)n1

A:
[0.21, 0.067, 6.39, 0.041]

Each compound below has a recorded value; state its IC50.
1. CC(=O)Nc1cc(-c2c(Nc3ccn(C)n3)nc3cccnn23)nc(C)n1
2. CC(=O)Nc1cc(-c2c(Nc3ccn(C)n3)nc3ccc(-c4cnn(C(C)C)c4)cn23)nc(C)n1

A:
1: 1.23; 2: 0.694
